tested on: K4 kissing-loop RNA reporter; assay: apparent KD of K4 kissing-loop reporter; higher = weaker reporter binding; details: Eterna round: R107; input ligand: FMN 200 uM;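 note: bound reporter read as fluorescence of individual clusters on recovered sequencing chips by microscopy, with normalized cluster intensities fitted with a binding model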
PROPERTY_NAME: apparent KD of K4 kissing-loop reporter (nM)
Respond numerically; units are nM and should not be typed.

Answered examples (2):
INSERT INTO results (chain_sequence, property_name, measurement_units, numeric_value) VALUES
  ('GCCGUACGCACGGAUACCAGCACUCGUUGAGUGAUGUUCACGGUGUGGUAUUCAACGGGCUGCCCUUGGCAGCCGUGCGUACGGC', 'apparent KD of K4 kissing-loop reporter', 'nM', 135),
  ('CGCGCUGCCUGAGGAUAUAGAAACGAGUGAUGUUCGUGGACAAGAGCCAGUGAUGUUGGGUUAUUUCUAGAAGGCAGGCGAUCGU [Exclusion FMN B GF5]', 'apparent KD of K4 kissing-loop reporter', 'nM', 124);

IN: Form field: reported apparent KD of K4 kissing-loop reporter of UGAUACCAGACGGCCGCCACUCCCGUAAGUCAAAGACUUACGAAGAGAGUUGUCCAGUGAUGUUGGAGGACCGGGUCUGGUAUCU [FiskerMod 13 - Jieux - Exclusion - Tryptophan B]
OUT: 230

IN: Form field: reported apparent KD of K4 kissing-loop reporter of CGCAGUGAUGUUGCGAGUAGCUACAGGGAAGGAGCGCUCUAGUGAGCAGGUAGGUCGCCCACGCAGUGAUGUUGCGUCAUAGGGU [Exclusion Arg A GF9]
OUT: 116

IN: Form field: reported apparent KD of K4 kissing-loop reporter of GGAUCCACCAGUGAUGUUGGAGAAAACUCUAAGGAUAUGACGAAAGUCAGAAGGUGGUAGACUGGACAAAGUCCGGUCGGAUCCA [FmnA 23 U30]
OUT: 1210

IN: Form field: reported apparent KD of K4 kissing-loop reporter of UGGCGAGUGAUGUUCGUUGUUGUUGUGUGUCGAGGACCGGUACGGCCGCCACUCGAGUUGGUUGUUGUUGUUGCUGUUGUUGCUG [#04 K4 Tryptophan A Same State]
OUT: 158

IN: Form field: reported apparent KD of K4 kissing-loop reporter of AAUAUAGUGAUGUUAUAUAAGAAGGAGUUACGAGGACCGGUACGGCCGCCACUCGAAACGAGUGAGGAUUUGGGAGAUUGGGUUC [SSTryptA.L]
OUT: 465

IN: Form field: reported apparent KD of K4 kissing-loop reporter of GGCAUAUAAAAUUGCCUAGAGAGAAAGGAUACCAGCACCCGGCGGUGCCCUUGGCAGCCUAGCCCAGUGAUGUUGGGUCCUCUAA [Esinvege]
OUT: 237

====

tested on: MS2 coat protein; assay: apparent KD of MS2 coat protein; designed switch direction (-1 OFF switch, 1 ON switch): -1; higher = weaker reporter binding; settings: Eterna round: R95; input ligand: FMN 200 uM
Recorded apparent KD of MS2 coat protein split into classes group 1 (below 20 nM), group 2 (20 nM to below 30 nM), group 3 (30 nM or more)

For orientation, consider the following solved cases.
INSERT INTO results (chain_sequence, target_or_system, assigned_label) VALUES
  ('AAGAAACGAGGAUAUACAGUUGAGUGAGAGAGGGAAGUGUGACAUGAGGAUCACCCAUGUAGAAGGCGUGAGAG [JR_Exclu2_Sub087] (puzzle: Exclusion 2)', 'MS2 coat protein', 'group 3'),
  ('AGUAGGUCUACCUUGGUGGAUCUGCAUUUAAGCAGGUGUACAUGAGGAUCACCCAUGUCCUCAUUUGCUCGUCUUAU [JL turnoff v2 99.30] (puzzle: Sensor v3, turn-off variant 2)', 'MS2 coat protein', 'group 3'),
  ('ACAAGCUUUUUGUUCGUCUUAUAAUAUUCAAUAAAGAUAACAUGAGGAUCACCCAUGUAACAAAGACGGACUCAUGU [Sesor Array 16 - Jieux - Sensor v3, turn-off variant 2] (puzzle: Sensor v3, turn-off variant 2)', 'MS2 coat protein', 'group 1');

IN: Hi there! Could you help me figure out the category for GAUAGAGAGCAGGAUAUCUUGGGUAAGUGUUGUAGAGAAGGGCUCACAUGAGGAUCACCCAUGUGGUCCUAGAU [JL Dibiri mod 08] (puzzle: Exclusion 6) please?
OUT: group 3

IN: Hi there! Could you help me figure out the category for AAGUACCGUCACGAUAGUGAUGGUACAACAAGUGAAUGUACAUGAGGAUCACCCAUGUCCUCUUUUGCUCGUCUUAU [Sensor 3 - 92] (puzzle: Sensor v3, turn-off variant 2) please?
OUT: group 3

IN: Hi there! Could you help me figure out the category for AUCAUGUAAGGAUAUCUUACAUGGAUCGAAAGAUCAAGUUAAGAGAAGGUACAUGAGGAUCACCCAUGUAUAAC [Ex4-3: 34] (puzzle: Exclusion 4) please?
OUT: group 2

IN: Hi there! Could you help me figure out the category for AAGUACCGUCACGAUAGUGAUGGUACAACAAGCAAGUGAACAUGAGGAUCACCCAUGUCCUCAAUUGCUCGUCUUAU [Sensor 3 - 71] (puzzle: Sensor v3, turn-off variant 2) please?
OUT: group 2

IN: Hi there! Could you help me figure out the category for AAACGGCGGAUCGUGGCUUUUUGCUCGUCUUGUGCUUCAACAUGAGGAUCACCCAUGUAGUGGUGAUCCGUUGUAAA [Grok-var2-17 mod JAL] (puzzle: Sensor v3, turn-off variant 2) please?
OUT: group 2

IN: Hi there! Could you help me figure out the category for GAUUAUGCGAGCUUUAGGGACAUGAGGAUCACCCAUGUUCGUCUUAUUAGUCUAAAUACGCUGACAUACCUAAAUCU [JMF 94] (puzzle: Sensor v3, turn-off variant 1) please?
OUT: group 1

IN: Hi there! Could you help me figure out the category for AGUACUAACACGAAAGUGUUAGUACAAUAAGCUUGUGAUACAUGAGGAUCACCCAUGUCCUCAUAAGCUCGUCUUAU [salish99_TOv2_r3_045] (puzzle: Sensor v3, turn-off variant 2) please?
OUT: group 2

====

system: MS2 coat protein; test: apparent KD of MS2 coat protein; designed switch direction (-1 OFF switch, 1 ON switch): 1; higher = weaker reporter binding; details: input ligand: none
PROPERTY_NAME: apparent KD of MS2 coat protein (nM)
Respond numerically; units are nM and should not be typed.

Answered examples (4):
INSERT INTO assay_data (chain_sequence, measurement_units, numeric_value) VALUES
  ('GAGUAGUUGAAAGGAUAUGGAUUGUUAUAGAAUCCAGAAGGUUCUAACAUGAGGAUCACCCAUGUAGGACUAUUCCUGUGUAUC [Parity 79 - Jieux - Same State NG 1] (Eterna round: R96, puzzle: Same State NG 1)', 'nM', 12.2),
  ('CUCAAACAUGAGGAUCACCCAUGUGUUGUCGUGGGAGGAUAUCCCAGUUCGGUGGCGUCGGGAGAAGGCCUAUGUC (Eterna round: R96, puzzle: Same State 1)', 'nM', 129),
  ('AAACCACAUGAGGAUCACCCAUGUAAAAAUAUGGGAGGAUAUCGGAAUAAAAUAAAGAAACGAGAAGGCCUAAAAA [59%, Flamingo, 5] (Eterna round: R96, puzzle: Same State 1)', 'nM', 256),
  ('UGGCUCAGACGAGGAUAUGGUCAUGGCGCUUCGGCGCAUACAUGAGGAUCACCCAUGUAGGGUGAUCAGAAGGUGUCUGAGCCA [SSNG2/9-B2] (Eterna round: R96, puzzle: Same State NG 2)', 'nM', 1100);

// switching to the query sequence
IN: Form field: reported apparent KD of MS2 coat protein of GUGGUCAGACAUGAGGAUCACCCAUGUGGAAUAAAUAACGGACAGGAUAUUUAAUAUAGGAUAUAGAAGAAGGGUUGAUUGGUG (Eterna round: R96, puzzle: Same State NG 3)
OUT: 90.8

====

Collected apparent KD of MS2 coat protein values appear next to each entry.
system: MS2 coat protein; assay: apparent KD of MS2 coat protein; designed switch direction (-1 OFF switch, 1 ON switch): 1; higher = weaker reporter binding; conditions: input ligand: FMN 200 uM
Respond numerically; units are nM and should not be typed.

INSERT INTO assay_data (chain_sequence, property_name, numeric_value) VALUES
  ('AUAAGGCAAGCUUUUUUCUCGUAGUGUAAACAUGAGGAUCACCCAUGUGCCCACCCUGGAUCUUUGGAUCGCGGAAC [Raxesori] (Eterna round: R96, puzzle: Sensor for hsa-mir-208a)', 'apparent KD of MS2 coat protein', 103),
  ('UAGCUUGUGGUAGGAUAUCUAGGAUAUGGGAAGAGCUAAGCUUGGAAGUCACUUCACCCAGAAGGAGAGAAGGACCAGAGGCUU [pwkr ssNG2 2FMN + F9.6] (Eterna round: R96, puzzle: Same State NG 2)', 'apparent KD of MS2 coat protein', 218),
  ('AGGCUCAGACGAGGAUAUGAUCAUGGCGCUUCGGCGCAUACAUGAGGAUCACCCAUGUAGGGUGAUCAGAAGGCGUCUGAGCCA [SSNG2/8-A1] (Eterna round: R96, puzzle: Same State NG 2)', 'apparent KD of MS2 coat protein', 42.1);

IN: Form field - read-out: apparent KD of MS2 coat protein; system: MS2 coat protein; submitted item: GAGUAGUUGGGAGGAUAUCCAUUGUUAUAGAAUGGAGAAGGUUUUAACAUGAGGAUCACCCAUGUAGGACUAUUCCUGUGUAUC [Parity 72 - Jieux - Same State NG 1] (Eterna round: R96, puzzle: Same State NG 1)
OUT: 13.5

IN: Form field - read-out: apparent KD of MS2 coat protein; system: MS2 coat protein; submitted item: GUUACAUGAGGAUCACCCAUGUAUGUGUGGGAGUAAGUGUCUUAGGAUAUCUGUUAUUUUAUUUAAGAGAAGGAAGAUUGUUGU [JMF's solution 39] (Eterna round: R96, puzzle: Same State NG 3)
OUT: 133

IN: Form field - read-out: apparent KD of MS2 coat protein; system: MS2 coat protein; submitted item: AAAAUGCGGGAAGGAUAUGGGAAAGGAAGUGUACCAGAAGGUCUCGCGGCCAAGGACAUGAGGAUCACCCAUGUGAACGCCCGA [PowerStrip SSNG 1.9] (Eterna round: R96, puzzle: Same State NG 1)
OUT: 98.1

IN: Form field - read-out: apparent KD of MS2 coat protein; system: MS2 coat protein; submitted item: GCUCGGCUGAUGGCCUACAUGAGGAUCACCCAUGUGACUGGGCAGGAUAUCUAGAUGCAGGAUGUAGAGAAGGGCCUGCCGAGC [SameState NG3 #42] (Eterna round: R96, puzzle: Same State NG 3)
OUT: 704

IN: Form field - read-out: apparent KD of MS2 coat protein; system: MS2 coat protein; submitted item: GUUCGUUUGAUAGGAUAUCGCUUAACAUGAGGAUCACCCAUGUUUACCACGCUGGUUUUUCGUACCGAGAAGGAUUCUGAUGAU [JL JR sub007 mod 1] (Eterna round: R96, puzzle: Same State NG 2)
OUT: 37.9

IN: Form field - read-out: apparent KD of MS2 coat protein; system: MS2 coat protein; submitted item: CGCCAGAGAACAGGAUAUGGGCCGCGGCCUAAGGGCUGCUAACUCACAUGAGGAUCACCCAUGUCCCAGAAGGGUUCCUGGCUG [Gexeso] (Eterna round: R96, puzzle: Same State NG 2)
OUT: 602
